# PROCEDURE_SUMMARY: NCI Yeast Anticancer Drug Screen. Data for the rad50 strain (AID 155);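 further: 0% = growth of vehicle-only cultures of the same strain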
# CONDITION_SUMMARY: S. cerevisiae rad50 strain growth inhibition; at 50.0 µM (retest, dose inferred, filed as 5.0)
About 79,000 compounds went through this panel and 15% of them were active in at least one assay; those are over-represented in the sample as a whole. Active and inactive are the calls of the source. No stated cut-off is given here; in the data, active means growth inhibition above about 70%; inactive means the rest.
Please reply with one of these outcomes: 1 (yes) (active), 0 (no) (inactive)

// query Could you kindly confirm the outcome this assay logged for O=[N+]([O-])C(=C1Nc2ccccc2N1)C(Cl)=C(Cl)Cl ?
// result 0 (no)

// query Could you kindly confirm the outcome this assay logged for O=C1C(c2ccc(Br)cc2)=[N+]([O-])c2ccccc21 ?
// result 1 (yes)

// query Could you kindly confirm the outcome this assay logged for O=C1CCC(Cc2ccc(C(F)(F)F)cc2)C(=O)N1 (stereo unspecified) ?
// result 0 (no)

// query Could you kindly confirm the outcome this assay logged for O=C1OC(c2ccc(O)cc2)=C(c2ccccc2)C1c1ccccc1 (stereo unspecified) ?
// result 0 (no)

// query Could you kindly confirm the outcome this assay logged for COc1ccc(/C=C/c2cc(OC)c(OC)c(OC)c2)cc1O[Si](C)(C)C(C)(C)C ?
// result 0 (no)

// query Could you kindly confirm the outcome this assay logged for CC(C)(C)C(=O)Nc1ccc2c(c1)C(=O)c1ccccc1C2=O ?
// result 1 (yes)
